# Test system: H460
# test-details: MTT cytotoxicity GI50, H460
# Type: cell-based
# condition-label: H460
attribute-measured: GI50

Past entries and their recorded results:
INSERT INTO assay_data (compound, attribute_measured, recorded_measurement) VALUES
  ('O=C(CCl)Nc1nc(-c2cccc([N+](=O)[O-])c2)cs1 [C2-22]', 'GI50', '> 20 µM'),
  ('CN(c1ccccc1)S(=O)(=O)c1cccc(NC(=O)CCl)c1 [C1-28]', 'GI50', '4.5 µM'),
  ('O=C(CCl)Nc1ncc(Cc2ccccc2Cl)s1 [C2-26]', 'GI50', '> 20 µM');

Okay, next one:
Q: // query GI50 value for entry COc1ccc(S(=O)(=O)N2CCCCCC2)cc1NC(=O)CCl [C1-31]
Result: > 20 µM

====

# system: GSTO1 (Homo sapiens, UniProt P78417)
# Sequence (P78417 1-241): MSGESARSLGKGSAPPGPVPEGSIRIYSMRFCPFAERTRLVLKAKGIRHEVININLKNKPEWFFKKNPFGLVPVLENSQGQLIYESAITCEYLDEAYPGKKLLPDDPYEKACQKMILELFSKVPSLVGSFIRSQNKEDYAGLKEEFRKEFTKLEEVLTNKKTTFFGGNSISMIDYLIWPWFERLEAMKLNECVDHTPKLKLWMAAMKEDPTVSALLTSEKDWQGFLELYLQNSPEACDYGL
# test-details: GSTO1 substrate assay (reduction of 4-NPG)
# condition-label: GSTO1 Substrate assay IC50, mean ± SEM, at least 3 independent experiments
attribute-measured: IC50
Express the reported value numerically, then name its unit.

Q: Could you share what IC50 was measured for O=C(CCl)Nc1cc(F)c(F)cc1NC(=O)CCl , tested on GSTO1 (Homo sapiens, UniProt P78417)?
Result: 3.14 µM

====

# system: UniProt:P78417
# Sequence (P78417 1-241): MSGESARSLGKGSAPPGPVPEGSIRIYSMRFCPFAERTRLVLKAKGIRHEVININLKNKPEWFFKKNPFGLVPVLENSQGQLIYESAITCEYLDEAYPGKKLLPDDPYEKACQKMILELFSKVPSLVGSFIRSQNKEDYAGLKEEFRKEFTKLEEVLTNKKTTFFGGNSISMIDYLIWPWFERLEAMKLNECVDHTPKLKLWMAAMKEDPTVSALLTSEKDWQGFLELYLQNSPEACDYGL
# test-details: In-gel fluorescence competitive CMFDA binding assay, recombinant GSTO1
# condition-label: inhibition of CMFDA binding
attribute-measured: GSTO binding assay (% Inhibition at 10 µM) Recombinant
# number then unit; no other words

The following molecules have reported results that may help.
INSERT INTO measurements (molecule, recorded_measurement) VALUES
  ('CCC1(c2ccccc2)NC(=O)N(NC(=O)CCl)C1=O (stereo not drawn) [C2-29]', '13.5%'),
  ('CCOc1ccc(OCCNC(=O)CCl)cc1 [C3-13]', '25.1%'),
  ('CN(CC1COc2ccccc2O1)C(=O)CCl (stereo not drawn) [C4-8]', '59.5%'),
  ('O=C(CCl)Nc1ccccc1N1CCOCC1 [C1-21]', '69.9%');

Q: Name the recorded GSTO binding assay (% Inhibition at 10 µM) Recombinant for Cc1c(C#N)c(NC(=O)CCl)n(-c2ccc(F)cc2)c1C [C2-3] .
Result: 37.8%

Q: Same again, this time with CCOc1ccc(NC(=O)CCl)cc1S(=O)(=O)N1CCCCC1 [C1-30]
Result: 75.9%

====

# system: endogenous GSTO1 (Homo sapiens, UniProt P78417)
# test-details: In-gel fluorescence competitive CMFDA binding assay, endogenous GSTO1 in HCT116
# condition-label: read-out: Competitive Binding assay Endogenous GSTO1 IC50
Collected IC50 values appear next to each entry.
Just the number please, in µM, no unit attached.

Example cases with answers are listed next.
INSERT INTO measurements (compound, system, measurement_unit, recorded_measurement) VALUES
  ('O=C(CCl)Nc1cc(S(=O)(=O)N(C(=O)CCl)c2cccc(Cl)c2)ccc1Cl', 'endogenous GSTO1 (Homo sapiens, UniProt P78417)', 'µM', 0.044),
  ('COc1ccc(S(=O)(=O)N2CCCCCC2)cc1NC(=O)CCl', 'endogenous GSTO1 (Homo sapiens, UniProt P78417)', 'µM', 0.007),
  ('CCOC(=O)c1c(NC(=O)CCl)sc2c1CCCCC2', 'endogenous GSTO1 (Homo sapiens, UniProt P78417)', 'µM', 0.52),
  ('CC1CCc2c(sc(NC(=O)CCl)c2C(N)=O)C1 (stereo not drawn)', 'endogenous GSTO1 (Homo sapiens, UniProt P78417)', 'µM', 0.075);

Q: Which IC50 value belongs to COC(=O)c1c(-c2ccccc2Cl)csc1NC(=O)CCl ?
Result: 0.19

Q: Consider next the compound CN(c1ccccc1)S(=O)(=O)c1cccc(NC(=O)CCl)c1 in the same way.
Result: 0.008

====

# system: endogenous GSTO1 (Homo sapiens)
# test-details: In-gel fluorescence competitive CMFDA binding assay, endogenous GSTO1 in HCT116
# condition-label: 10 µM; inhibition of CMFDA binding, HCT116
Outcome label depends on GSTO binding assay (% Inhibition at 10 µM) Endogenous relative to 50%: at/above gives satisfied, below gives not satisfied.

// below: answered compounds
INSERT INTO results (compound, class_name) VALUES
  ('O=C(CCl)NNC(=O)c1ccc(Br)cc1 [C3-21]', 'not satisfied'),
  ('NC(=O)C1CN(C(=O)CCl)c2ccccc2O1 (stereo not drawn) [C5-24]', 'satisfied'),
  ('CCOC(=O)c1c(-c2ccc(OC)c(OC)c2)csc1NC(=O)CCl [C2-12]', 'satisfied'),
  ('CC(C)(C)c1ccc(C(=O)NNC(=O)CCl)cc1 [C3-20]', 'not satisfied'),
  ('N#CC(c1ccccc1)N1CCN(C(=O)CCl)CC1 (stereo not drawn) [C5-8]', 'satisfied'),
  ('O=C(CCl)N1CCN(Cc2cccc3ccccc23)CC1 [C5-9]', 'satisfied'),
  ('O=C(CCl)N(CC(F)(F)F)c1ccc(Cl)cc1 [C4-1]', 'satisfied'),
  ('CCCCN(C(=O)CCl)c1c(N)n(CC(C)C)c(=O)[nH]c1=O [C4-19]', 'not satisfied'),
  ('O=C(CCl)Nc1cc([N+](=O)[O-])ccc1Nc1ccc(F)cc1 [C1-4]', 'not satisfied'),
  ('CCN(Cc1ccc2c(c1)OCO2)C(=O)CCl [C4-11]', 'satisfied');

We now examine a further compound.
Q: In plain terms: is recorded GSTO binding assay (% Inhibition at 10 µM) Endogenous at least 50% for Cc1cccc(NC(=S)NC(NC(=O)CCl)C(Cl)(Cl)Cl)c1 (stereo not drawn) [C3-27] ?
Result: satisfied

====

# system: GSTO1 (Homo sapiens, UniProt P78417)
# Sequence (P78417 1-241): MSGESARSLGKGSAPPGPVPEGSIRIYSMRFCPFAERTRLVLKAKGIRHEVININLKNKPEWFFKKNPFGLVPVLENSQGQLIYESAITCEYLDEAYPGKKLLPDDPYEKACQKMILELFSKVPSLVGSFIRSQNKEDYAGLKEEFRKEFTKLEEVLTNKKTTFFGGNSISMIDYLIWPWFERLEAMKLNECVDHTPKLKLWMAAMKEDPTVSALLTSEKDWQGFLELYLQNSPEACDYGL
# test-details: GSTO1 substrate assay (reduction of 4-NPG)
# condition-label: read-out: GSTO substrate assay IC50; cluster screening tables
attribute-measured: IC50 (nM)
A number alone suffices; assume nM.

Look over these answered cases.
INSERT INTO assay_data (compound, recorded_measurement) VALUES
  ('CCOc1ccc(/C=C/C2=Cc3c(sc(NC(=O)CCl)c3C#N)C(C)(C)C2)cc1 [C2-21]', 350),
  ('CCOc1ccc(NC(=O)NC(=O)CCl)cc1OCC [C3-19]', 508),
  ('O=C(CCl)N1CCC(Cc2ccccc2)CC1 [C5-1]', 48),
  ('CCOC(=O)c1c(NC(=O)CCl)sc2c1CCCCC2 [C2-16]', 66);

Q: Record request: IC50 value, item CC1Cc2cc(S(N)(=O)=O)ccc2N1C(=O)CCl (centres unmarked) [C5-20]
Result: 2290

Q: Here is the next compound: O=C(CCl)Nc1ccnn1Cc1cccc(Cl)c1 [C2-7]
Result: 598

Q: What do we get for O=C(CCl)N1CCN(S(=O)(=O)c2ccc3c(c2)OCCO3)CC1 [C5-15] ?
Result: 262

Q: Again, but for CCN(Cc1ccc2c(c1)OCO2)C(=O)CCl [C4-11]
Result: 2360

Q: What about this compound? O=C(CCl)N1CCN(Cc2ccc(Br)s2)CC1 [C5-10]
Result: 411

Q: # iterate: N#CC(c1ccccc1)N1CCN(C(=O)CCl)CC1 (centres unmarked) [C5-8]
Result: 293

Q: Would you mind doing C=CCOc1ccccc1CN(C(=O)CCl)c1ccc2c(c1)OCCO2 [C4-17] as well?
Result: 902
